Tested on: MFH-ino;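 note: growth inhibition of human MFH-ino cells, read out by a cell viability assay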
Assay: cells
Assay type: functional, cell-based, Homo sapiens
Details: mfh-ino
Description: SANGER: Inhibition of human MFH-ino cell growth in a cell viability assay.
measure: pIC50
Would you please state pIC50, meaning minus log10 of the concentration in mol/L, as a bare number?

So for CISPLATIN , the logged pIC50 turned out to be 2.87

====

Measured IC50 by item
System: NCI-H1573;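 note: growth inhibition of NCI-H1573 cells, read out with a cell viability assay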
Assay: cells
Format: functional, cell-based, Homo sapiens
Settings: Homo sapiens, NCI-H1573
Description: SANGER: Inhibition of human NCI-H1573 cell growth in a cell viability assay.

Worked set:
{"molecule": "Oc1ccc2ccccc2c1SSc1c(O)ccc2ccccc12", "target": "NCI-H1573", "result": "> 32 µM"}
{"molecule": "Cn1cnc2c(F)c(Nc3ccc(Br)cc3Cl)c(C(=O)NOCCO)cc21", "target": "NCI-H1573", "result": "> 4 µM"}
{"molecule": "Nc1cccc2c1CN(C1CCC(=O)NC1=O)C2=O (stereo not drawn) [LENALIDOMIDE]", "target": "NCI-H1573", "result": "> 5 µM"}
{"molecule": "CC(C)CCN1c2nc(Nc3cc(F)c(O)c(F)c3)ncc2N(C)C(=O)C1C (stereo not drawn)", "target": "NCI-H1573", "result": "> 5 µM"}
{"molecule": "CCC/C=C/C=C/C(=O)O[C@H]1/C(=C/C(=O)OC)C[C@H]2C[C@H]([C@@H](C)O)OC(=O)C[C@H](O)C[C@@H]3C[C@H](OC(C)=O)C(C)(C)[C@](O)(C[C@@H]4C/C(=C/C(=O)OC)C[C@H](/C=C/C(C)(C)[C@]1(O)O2)O4)O3", "target": "NCI-H1573", "result": "0.00236 µM"}

Reported IC50 (NCI-H1573) for entry C=C(c1ccc(C(=O)O)cc1)c1cc2c(cc1C)C(C)(C)CCC2(C)C is > 8 µM

Reported IC50 (NCI-H1573) for entry COc1cc2c(Nc3ccc(NC(=O)c4ccccc4)cc3)ncnc2cc1OCCCN1CCOCC1 is > 4 µM

Reported IC50 (NCI-H1573) for entry CS(=O)(=O)c1ccc(C(=O)Nc2ccc(Cl)c(-c3ccccn3)c2)c(Cl)c1 is > 10 µM

Origin of the recorded values: ChEMBL document CHEMBL1201861
